Substrate: PET
test.summary: Proxy for plastic degradation [HPLC-UV] (mmol)
condition.notes: pH 8; 30 °C

# protein, Proxy for plastic degradation
data = [
    ("unnamed (protein) CGSDDDSAPGSPAGNEPFYAPDELGPFAVGRSTFTIVDADRGDRELPVDVWYPVDPEEATGAPSLYQVSILVWIFPLVFTTPSEVALDSPPVSEARRFPLIVFSHGSGGLRYQSFFLTEILASHGFVVVAPSHVGNTLLDEINGTFAPLTDMMVARPLDVSYLITRMLEKNEDAADPLYGTIDADRIGVCGHSFGGFTSLAMAAGFGADPPPDLDPEIPEDLEPVPPDPRVDAIVPIAPASSWFGDSELAGIDVPTLIIGGTLDTTTPIATENVRPYEMIPAPVFRADLDGAVHFSFSNSCDLIQGMREKGIPQALIDALLGAEFTAPCNPPSLDVEEAHRITNLYTVSLFETFLEDDSRYEKYLTEAYAEASEPNVTFYANPD", 0),
    ("unnamed (protein) CTDNADTDGADGAEGSATEEGGTEESGKESGEESKADLAALAAEVEEPGPWAVGTTTVETTGARDRQLPVQVWYPVDTAVAATAEPATYDFPGIEVPAGAVTGASPAPGPFPLVIYSHGNGGLRYVSSFLAEHMASHGFVVMAPDHVGNTALDTFLGSRDETDQVAEDRPVDVQAVIDAATSGQAGLEEVSPVVDGEEVAVIGHSFGGYTALALASRQAEGDDSLDAIVGLAPASSGVDDTTLEAVGVPTLLISGTLDETTPIEEDTLRPAELVSGRPLVRADIDGAGHQSFTDVCDYLGIAESQPDLPAALVEAPQEYALEGCAPELIVIDEAQRITNRLVTAFLLETLYADDSWSPLLSPGAEEGQPLALLERED", 0),
]
